- target_entity: T1, Anti-PSMA Fab
- T1 construct: Biotinylated and captured on neutravidin coated plates in the panning ELISA; also called 006 PSMA Fab
- experiment_summary: phage ELISA; PSMA Fab on plate pre-incubated with PSMA antigen (competitor), anti-M13-HRP detection
Items are presented alongside their recorded Phage binding ELISA signal, Anti-PSMA Fab in presence of PSMA.
quantity: Phage binding ELISA signal, Anti-PSMA Fab in presence of PSMA

- EKPVCVPSWMCTGF (also called peptide-180 library clone) [Phage-2911]: 0.098
- AVPLCMPKWMCTGF (also called peptide-180 library clone) [Phage-2910]: 0.0971
- VDRMCVPKWMCEGL (also called peptide-180 library clone) [Phage-2916]: 0.0971
